These data points were gathered from patent US4939132A.

Tested on: S. pyogenes
Assay: Tube dilution assay (Macro-Broth Dilution Method), S. pyogenes
Assay type: cell-based
Settings: Streptococcus pyogenes; S. pyogenes; Mueller-Hinton broth, 35° C., 16 to 20 hours; read-out: Minimal Inhibitory Concentration
Measure: MIC
Answer format: number, then unit.

Known MIC results, listed for orientation:
- Compound: "CCCCCCCCCCCCS(=O)(=O)c1ccc(O)c(C(=O)Nc2ccc(C(F)(F)F)cc2)c1 [(i)]"
  MIC: "0.5 µg/mL"
- Compound: "CCCCCCCCCCS(=O)(=O)c1ccc(O)c(C(=O)Nc2ccc(Br)cc2)c1 [(g), 5-n-decylsulfony-4'-bromosalicylanilide]"
  MIC: "0.5 µg/mL"
- Compound: "CCCCCCCCCCS(=O)(=O)c1ccc(O)c(C(=O)Nc2ccc(C(F)(F)F)cc2)c1 [(d)]"
  MIC: "0.5 µg/mL"
- Compound: "CCCCCCCCCCS(=O)(=O)c1ccc(O)c(C(=O)Nc2cccc(C(F)(F)F)c2)c1 [(e)]"
  MIC: "0.5 µg/mL"
- Compound: "CCCCCCCCS(=O)(=O)c1ccc(O)c(C(=O)Nc2ccc([N+](=O)[O-])cc2)c1 [(f)]"
  MIC: "5 µg/mL"
- Compound: "CCCCCCCCCC(=O)c1ccc(O)c(C(=O)Nc2ccc([N+](=O)[O-])cc2)c1 [(b), 5-n-decanoyl-4'-nitrosalicylanilide, reference compound]"
  MIC: "0.1 µg/mL"
- Compound: "CCCCCCCCCCS(=O)(=O)c1ccc(O)c(C(=O)Nc2ccc([N+](=O)[O-])cc2)c1 [(c)]"
  MIC: "0.5 µg/mL"

Turning now to a further record.
IN: Recall and state the measured MIC for CCCCCCS(=O)(=O)c1ccc(O)c(C(=O)Nc2ccc(Br)cc2)c1 [(h), 5-n-hexylsulfonyl-4'-bromosalicylanilide] .
OUT: 5 µg/mL
